System: NTMT2-N89G mutant
Test: MALDI-MS methyltransferase activity assay, NTMT2-N89G mutant
Format: biochemical, human
Conditions: NTMT2-N89G under the same conditions (2 μM enzyme, 10 μM peptide, 200 μM SAM, pH 7.5, 37 °C, overnight)
The following substances are shown together with reported Unmethylated fraction values.

SUBSTANCE	UNIT_DESCRIPTOR	Unmethylated fraction
DPKRIA [synthetic XPKRIA hexapeptide substrate, X = D]	%	100.00
KPKRIA [synthetic XPKRIA hexapeptide substrate, X = K]	%	79.60
CPKRIA [synthetic XPKRIA hexapeptide substrate, X = C]	%	36.62
APKRIA [synthetic XPKRIA hexapeptide substrate, X = A]	%	0.00
IPKRIA [synthetic XPKRIA hexapeptide substrate, X = I]	%	94.92
RPKRIA [synthetic XPKRIA hexapeptide substrate, X = R]	%	52.14
VPKRIA [synthetic XPKRIA hexapeptide substrate, X = V]	%	95.82
WPKRIA [synthetic XPKRIA hexapeptide substrate, X = W]	%	0.00
GPKRIA [synthetic XPKRIA hexapeptide substrate, X = G]	%	13.49

====

The following substances are shown together with reported Di-methylated fraction values.
System: NTMT2-N89G mutant
Assay: MALDI-MS methyltransferase activity assay, NTMT2-N89G mutant
Format: biochemical, human
Conditions: NTMT2-N89G under the same conditions (2 μM enzyme, 10 μM peptide, 200 μM SAM, pH 7.5, 37 °C, overnight)
ENDPOINT_LABEL: Di-methylated fraction

SUBSTANCE	RESULT
GPKRIA [synthetic XPKRIA hexapeptide substrate, X = G]	19.61%
CPKRIA [synthetic XPKRIA hexapeptide substrate, X = C]	0.00%
APKRIA [synthetic XPKRIA hexapeptide substrate, X = A]	26.21%
EPKRIA [synthetic XPKRIA hexapeptide substrate, X = E]	0.00%
MPKRIA [synthetic XPKRIA hexapeptide substrate, X = M]	0.00%
LPKRIA [synthetic XPKRIA hexapeptide substrate, X = L]	0.00%
PPKRIA [synthetic XPKRIA hexapeptide substrate, X = P]	4.45%
WPKRIA [synthetic XPKRIA hexapeptide substrate, X = W]	0.00%
HPKRIA [synthetic XPKRIA hexapeptide substrate, X = H]	1.61%
TPKRIA [synthetic XPKRIA hexapeptide substrate, X = T]	0.00%
DPKRIA [synthetic XPKRIA hexapeptide substrate, X = D]	0.00%
IPKRIA [synthetic XPKRIA hexapeptide substrate, X = I]	0.00%
NPKRIA [synthetic XPKRIA hexapeptide substrate, X = N]	0.00%

====

The following substances are shown together with reported Mono-methylated fraction values.
Tested on: NTMT2-N89G mutant
Test: MALDI-MS methyltransferase activity assay, NTMT2-N89G mutant
Type: biochemical, human
Settings: NTMT2-N89G under the same conditions (2 μM enzyme, 10 μM peptide, 200 μM SAM, pH 7.5, 37 °C, overnight)
Experimental: A mixture (36 μL) of 2 μM enzyme (NTMT1 or NTMT2), 25 mM Tris–HCl pH 7.5, 50 mM KCl and 200 μM SAM was incubated at 37 °C for 5 min. 4 μL of 100 μM peptide substrate (final concentration 10 μM) was then added to initiate the reaction. […] Reaction mixtures were analyzed with an Applied Biosystems Voyager matrix-assisted laser desorption/ionization time-of-flight mass spectrometer. […]
ENDPOINT_LABEL: Mono-methylated fraction (%)

SUBSTANCE	UNIT_DESCRIPTOR	READOUT_NUMBER
FPKRIA [synthetic XPKRIA hexapeptide substrate, X = F]	%	100.00
WPKRIA [synthetic XPKRIA hexapeptide substrate, X = W]	%	100.00
HPKRIA [synthetic XPKRIA hexapeptide substrate, X = H]	%	98.39
APKRIA [synthetic XPKRIA hexapeptide substrate, X = A]	%	71.86
DPKRIA [synthetic XPKRIA hexapeptide substrate, X = D]	%	0.00
